Reported peptide exchange yield values for a set of binders
target entity: T1, HLA-A*01:01 (human)
T1 construct: MHC class I monomer first loaded with a UV-sensitive peptide (not identified) that is cleaved by UV irradiation and exchanged for the tested peptide; captured on streptavidin plates, detected with anti-β2m; also called peptide-receptive MHC molecules
assay comment: UV-ligand exchange, anti-b2m ELISA

| binder | peptide exchange yield |
| --- | --- |
| YLEDRPLSQLY | > 75% |
| ATEGDVLNY | 50 to 75% |
| CYTADNEMGY | 50 to 75% |
| EVVEGKEWGSFY | 50 to 75% |
| LSAQHRMLA | 20 to 50% |
| EAYLERIGY | 50 to 75% |

Where do these numbers come from? They come from patent US20200087364A1.
